Biological target: T1, OsPP2A-2 aa 1-308 (Oryza sativa, UniProt A2XN40 1-307)
T1 construct: bait, Gal4 DBD fusion; also called PN20254; O. sativa Serine/Threonine Protein Phosphatase PP2A-2, Catalytic Subunit
T1 sequence (A2XN40 whole entry, the tested form may be a part): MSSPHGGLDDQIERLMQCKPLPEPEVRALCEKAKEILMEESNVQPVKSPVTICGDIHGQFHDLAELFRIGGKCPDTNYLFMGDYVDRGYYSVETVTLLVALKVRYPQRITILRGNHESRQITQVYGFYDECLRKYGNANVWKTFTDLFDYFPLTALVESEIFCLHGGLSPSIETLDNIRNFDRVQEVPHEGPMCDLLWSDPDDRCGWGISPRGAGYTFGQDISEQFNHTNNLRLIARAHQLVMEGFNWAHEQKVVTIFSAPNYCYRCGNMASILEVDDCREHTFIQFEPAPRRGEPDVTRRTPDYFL
Test: Y2H; input trait library

Binder: OsPN23268 aa 12-200 (other, prey, AD fusion; also called Novel Protein 23268, Similar to Phosphoribosylanthranilate Transferase, Chloroplast Precursor, Fragment) SEEEAEATLRLLLEEENEARIAAFLVLLRAKGETYEEIVGLAKAMIGCCVRVDGLDDAVDIVGTGGDGADTVNISTGSTILAAAAGAKVAKQGSRASSSACGSADGIKRCVNEVGVGFMMSANYHPAMKIVKPVRKKLKIKTVFNILGPLLNPARVPYAVIGVYHENIVTKMAKAAQKFGMKRALVVHS
binding result: binds
//
Binder: OsORF020300-2233.2 aa 93-387 (other, prey, AD fusion; also called PN21639; Hypothetical Protein ORF020300-2233.2, Putative PP2A Regulatory Subunit, Similar to OsCAA90866) LLVPYYLGEMTERVAQEDRIPVLKASQDHLKEFISICEALELISEDELELSRQKQPDTMANRRAQKAARFKRQKAAETKLLEIKERKERRRRSLRAAALSAPIEAGEEDAFEDDGEEEREAWLATISLALCKAFDLLDMLKKEEEMLLAVKERQAKDGNAFAREMLDERTKKAEAWHHNAANRAPYSKPADPITCATFAQDVIEGRASVSQAHEHKHQPLIFGPASLVGGGLTSERERMAAQVFQPSYRLPTMSIEEAGLREMKMMEKWQERTAKMIQESNSAWHKDGSRSAQED
binding result: binds
//
Binder: OsAAK63900 aa 122-224 (other, prey, AD fusion; also called PN23266; O. sativa Putative Proline-Rich Protein AAK63900) AAVAGKTHYRSALCASVTICGPIKKKIIDHFHKKPVPPKPEPKPEPPKPKPEPEHPFLDHIHKKEKHFFDHFHKKPVPPKPEPKPEPKPQPAPEYHNPSPPAN
binding result: binds
//
Binder: OsPN26645 aa 24-164 (other, prey, AD fusion; also called Novel Protein PN26645, Putative Protein Disulfide Isomerase-Related Protein Precursor) PLPEACPVPTAAEEILGPGGTCTTLDRRGDPVGVIEGDEVTLAKAITLLHMNKDDYIAVLFYASWCPFSQECKPNFEILASLFPSIRHFAFEESSIRPSIISRYGIHGFPTLFLLNSTMRVRYHGPRTVKSLAAFYRDVSG
binding result: binds
//
Binder: OsORF020300-2233.2 aa 118-388 (other, prey, AD fusion; also called PN21639) SQDHLKEFISICEALELISEDELELSRQKQPDTMANRRAQKAARFKRQKAAETKLLEIKERKERRRRSLRAAALSAPIEAGEEDAFEDDGEEEREAWLATISLALCKAFDLLDMLKKEEEMLLAVKERQAKDGNAFAREMLDERTKKAEAWHHNAANRAPYSKPADPITCATFAQDVIEGRASVSQAHEHKHQPLIFGPASLVGGGLTSERERMAAQVFQPSYRLPTMSIEEAGLREMKMMEKWQERTAKMIQESNSAWHKDGSRSAQEDE
binding result: binds
